The measured values listed here are drawn from PubChem BioAssay (NCI).

tested on: SK-MEL-5 melanoma; assay: NCI tumour cell line growth inhibition, 48 h
Reported TGI values are given for each entry in this list.
Give the quantity in µM, number only.

Smiles data	TGI [µM]
Cc1csc2[n+]1C(=O)/C(=C\c1ccc([N+](=O)[O-])cc1)S2	55

input: What value of TGI on SK-MEL-5 melanoma does COc1cc([N+](=O)[O-])c(OC)cc1-c1nc2sc(Cl)cn2c1/C(N)=N/C(=N)N have?
output: 29.5

input: What value of TGI on SK-MEL-5 melanoma does C=C1c2ccccc2C(=O)c2c1c1c(C(=O)OC)c(O)ccc1n2Cc1ccccc1 have?
output: 1.97

input: What value of TGI on SK-MEL-5 melanoma does COc1cc(/C=C/C(=O)c2cccc(Nc3nc(Nc4ccccc4)nc(Nc4ccccc4)n3)c2)cc(OC)c1OC have?
output: 23.8

====

tested on: MDA-MB-231 breast; assay: NCI tumour cell line growth inhibition, 48 h; in the data active = GI50 below about 0.43 µM; inactive = the rest
Hi there, use one of these labels in your reply, thanks! active, inactive

A selection of reference data follows.
Compound	Class name
Cc1cc(O)c(C(C)C)cc1S(=O)(=O)O (tested in a mixture with another compound)	active
COc1ccc(-c2cc(=O)[nH]c3c(OC)c4ccccc4c(OC)c23)cc1	inactive
C=C1C(=O)O[C@H]2[C@H]1CC/C(COC(=O)NCc1ccc(Cn3c(=O)sn(CCCl)c3=O)cc1)=C\CC[C@@]1(C)O[C@@H]21	inactive

Attention now shifts to the item below.
input: Assay outcome for CN[C@@H](C)C(=O)N[C@H](C(=O)N1CCC[C@H]1C(=O)Nc1snnc1-c1ccccc1)C1CCCCC1 : what was it?
output: inactive

====

tested on: COLO 205 colon; experiment: NCI tumour cell line growth inhibition, 48 h
Readout: TGI (µM)
Give the quantity in µM, number only.

Reference set, count: 4
Compound	Scale unit	TGI
O=C1/C(=C\c2ccc(O)cc2)CCC/C1=C/c1ccc(Cl)c(Cl)c1	µM	3.67
Cc1cc2c(cc1-c1cc3c(cc1C)C(C(C)C)=C(O)C(=O)/C3=C\Nc1c3ccccc3nc3ccccc13)/C(=C/Nc1c3ccccc3nc3ccccc13)C(=O)C(O)=C2C(C)C	µM	6.72
C=C1C(=O)O[C@H]2[C@H]1CC/C(COC(=O)NCc1ccc(Cn3c(=O)sn(CCCl)c3=O)cc1)=C\CC[C@@]1(C)O[C@@H]21	µM	3.6
CN[C@@H](C)C(=O)N[C@H](C(=O)N1CCC[C@H]1C(=O)Nc1snnc1-c1ccccc1)C1CCCCC1	µM	42.1

input: Name the recorded TGI for CCS(CC)(CC)CC1CCCC2=CCC(P(=O)(c3ccccc3)c3ccccc3)CC21 (centres undefined) .
output: 37.4

====

test system: SK-OV-3 ovarian; experiment: NCI tumour cell line growth inhibition, 48 h
Readout: TGI

Reference set, count: 5
Compound	TGI
COc1ccc(C(=O)c2cc(OC)c(OC)c(OC)c2)cc1OC(=O)CCl	> 100 µM
CC(=O)OC1COC(n2c(O)c(N=NC(N)=S)c3cc(Br)ccc32)C(OC(C)=O)C1OC(C)=O (stereo not drawn)	> 100 µM
C=CCNC1=C2C[C@@H](C)C[C@@H](OC)[C@H](OC(=O)CCN)[C@H](C)/C=C(\C)[C@@H](OC(N)=O)[C@H](OC)/C=C\C=C(/C)C(=O)NC(=CC1=O)C2=O	11 µM
CCC[CH2][Sn]1([CH2]CCC)[O]C(=O)c2cccnc2[O]1	22.1 µM
CN(CCCCCl)P(=O)(OCc1ccc([N+](=O)[O-])o1)OC[C@H]1O[C@@H](n2cc(F)c(=O)[nH]c2=O)C[C@@H]1O (stereo partly drawn)	34.1 µM

input: Name the recorded TGI for CC(=O)NC1C(OCc2ccccc2)OC(CO)C(O)C1OC(C)C(=O)NC(C(=O)N[C@@H](CCC(=O)NCCNCCNc1c2ccccc2nc2cccc([N+](=O)[O-])c12)C(N)=O)C(C)C (stereo partly drawn) .
output: > 100 µM

input: Name the recorded TGI for CC1CCC(NC(=O)N(CCCl)N=O)CC1 (stereo not drawn) .
output: 148 µM

input: Name the recorded TGI for COC1(OC)c2no[n+]([O-])c2CCC1O (stereo not drawn) .
output: > 100 µM
